target: Estrogen receptor beta (Homo sapiens); experiment: qHTS assay to identify small molecule antagonists of the estrogen receptor beta (ER-beta) signaling pathway (AID 1259378); conditions: ER-beta-UAS-bla HEK293T, beta-lactamase FRET ratio, 16 h; series mostly up to 92.4 µM
Results filed as inconclusive are left out. Calls of active or inactive are those of the source. The call rests on the fitted dose curve; in most records, active means well fitted inhibition curve with a large enough effect in the signal ratio in the repeat runs (not every such curve was filed as active); inconclusive means weak or mixed curves, or effect the other way; inactive means no such curve, though single readings can be large or run the other way; the % refers to the signal ratio.
Log the outcome using a class from active, inactive

Observe how each entry below is paired with its result.
[ask] Any idea what this test logged for `CCCCCCCCCC[N+](C)(CCCCCCCCCC)CCC[Si](OC)(OC)OC` ?
[reply] inactive

[ask] How did this test come out for `CCN(CC)c1ccc(N=Nc2ccccc2)cc1` ?
[reply] inactive

More entries:
[ask] Which result was noted for this compound in the test: `CO[Si](OC)(c1ccccc1)c1ccccc1`
[reply] inactive

[ask] Recorded test outcome, item `CCc1c(C)cc(N)c(CC)c1N`
[reply] inactive
